These measurements were taken from the supplement of paper PMC11208160.

# PROTOCOL_SUMMARY: recombinant barcode read abundance after kanamycin selection (control-corrected) (log10(CPM+1)); higher = more efficient recombination; sequences stand for … in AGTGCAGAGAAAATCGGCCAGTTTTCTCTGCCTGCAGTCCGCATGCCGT…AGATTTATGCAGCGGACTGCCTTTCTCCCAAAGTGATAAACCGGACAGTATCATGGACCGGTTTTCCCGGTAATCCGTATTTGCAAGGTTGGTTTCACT; site = the 11-nt target;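 note: IS621 recombinase and bridge RNA in Escherichia coli cells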
Measured recombinant barcode read abundance (log10) of individual entries
Just the number.

Field recombinant barcode read abundance (log10) (entry CTATGTCCTTGGGTTCTAACCTGTTGCGT (site GGATGTCCTAC) ) reads 0.228

Field recombinant barcode read abundance (log10) (entry GGGGCCTCTTGGGTTCTAACCTGTTGCTT (site GGGGCATCTAA) ) reads 0.481

Field recombinant barcode read abundance (log10) (entry TAGGAAACTTGGGTTCTAACCTGTTGCGT (site TAGGAGACTAC) ) reads 0.781

Field recombinant barcode read abundance (log10) (entry ACCGTGACTTGGGTTCTAACCTGTTGCCT (site ACCGCGACTAG) ) reads 0.272

Field recombinant barcode read abundance (log10) (entry ACTCTAACTTGGGTTCTAACCTGTTGCTT (site ACTTTAACTAA) ) reads 0.0201

Field recombinant barcode read abundance (log10) (entry TAAGGTCCTTGGGTTCTAACCTGTTGCTA (site TAAGGTCCTTA) ) reads 1.81

New cases:
Field recombinant barcode read abundance (log10) (entry TGCCTGCCTTGGGTTCTAACCTGTTGCCT (site AAGACAACTCC) ) reads 0.06

Field recombinant barcode read abundance (log10) (entry CGGGCGTCTTGGGTTCTAACCTGTTGCTA (site ATTCGAGCTAT) ) reads 0.116

Field recombinant barcode read abundance (log10) (entry GCAGGGTCTTGGGTTCTAACCTGTTGCTT (site GCAGGGTCTAA) ) reads 2.4

Field recombinant barcode read abundance (log10) (entry ATCAAGACTTGGGTTCTAACCTGTTGCCT (site ATCAAGACTAG) ) reads 1.42

Field recombinant barcode read abundance (log10) (entry ACTCTAACTTGGGTTCTAACCTGTTGCTT (site ACTCTAACTAA) ) reads 0.121

Field recombinant barcode read abundance (log10) (entry CGGAATCCTTGGGTTCTAACCTGTTGCAT (site CGGAATCCTAT) ) reads 1.15

Field recombinant barcode read abundance (log10) (entry TCGGATACTTGGGTTCTAACCTGTTGCTT (site TCGGATACTAA) ) reads 0.659

Field recombinant barcode read abundance (log10) (entry CGTGGTCCTTGGGTTCTAACCTGTTGCAT (site CGTGGTCCTAG) ) reads 0.398

Field recombinant barcode read abundance (log10) (entry GCAAGTACTTGGGTTCTAACCTGTTGCAG (site GCAAGTACTCT) ) reads 1.95

Field recombinant barcode read abundance (log10) (entry ACGACTCCTTGGGTTCTAACCTGTTGCTG (site ACGACTCCTCA) ) reads 0.485

Field recombinant barcode read abundance (log10) (entry CTACAGACTTGGGTTCTAACCTGTTGCGG (site CTACAGACTAC) ) reads 0.088

Field recombinant barcode read abundance (log10) (entry CAAAGTCCTTGGGTTCTAACCTGTTGCGT (site CAAAGTCCTAG) ) reads 0.294

Field recombinant barcode read abundance (log10) (entry TGAGAAGCTTGGGTTCTAACCTGTTGCCT (site TGAGAAGCTAG) ) reads 1.1

Field recombinant barcode read abundance (log10) (entry AGAGCCACTTGGGTTCTAACCTGTTGCTA (site AGAGCCACTTA) ) reads 2.09

Field recombinant barcode read abundance (log10) (entry TGTCTGTCTTGGGTTCTAACCTGTTGCTA (site TGTCTGTCTTA) ) reads 0.0943
